test system: 26S proteasome chymotrypsin-like activity (human); assay: proteasome chymotrypsin-like activity inhibition in cells, dose response, mechanism study for HSF1 activator project, U2OS cells, luminescence, dry powder (AID 624444); details: Proteasome-Glo chymotrypsin luminescence, at 38 µM (top of the series)
The reader will find reported activity change, negative = inhibition values listed item by item below.
Only the number, expressed in %, is required.

In the examples that follow, each entry is paired with its recorded activity change, negative = inhibition.
Consider the compound Nc1nc(SCc2ccc(Cl)cc2Cl)ns1 . State its measured activity change, negative = inhibition.
41.7

Consider the compound Nc1nc(S(=O)(=O)Cc2ccccc2)ns1 . State its measured activity change, negative = inhibition.
-9

Attention now turns to another entry.
Consider the compound Nc1nc(SCc2ccccc2Cl)ns1 . State its measured activity change, negative = inhibition.
-9.05
